Parameter pIC50: see the listing below.
MEASURED_TARGET: Acetylcholinesterase (Electrophorus electricus, UniProt O42275)
Sequence (O42275 whole entry): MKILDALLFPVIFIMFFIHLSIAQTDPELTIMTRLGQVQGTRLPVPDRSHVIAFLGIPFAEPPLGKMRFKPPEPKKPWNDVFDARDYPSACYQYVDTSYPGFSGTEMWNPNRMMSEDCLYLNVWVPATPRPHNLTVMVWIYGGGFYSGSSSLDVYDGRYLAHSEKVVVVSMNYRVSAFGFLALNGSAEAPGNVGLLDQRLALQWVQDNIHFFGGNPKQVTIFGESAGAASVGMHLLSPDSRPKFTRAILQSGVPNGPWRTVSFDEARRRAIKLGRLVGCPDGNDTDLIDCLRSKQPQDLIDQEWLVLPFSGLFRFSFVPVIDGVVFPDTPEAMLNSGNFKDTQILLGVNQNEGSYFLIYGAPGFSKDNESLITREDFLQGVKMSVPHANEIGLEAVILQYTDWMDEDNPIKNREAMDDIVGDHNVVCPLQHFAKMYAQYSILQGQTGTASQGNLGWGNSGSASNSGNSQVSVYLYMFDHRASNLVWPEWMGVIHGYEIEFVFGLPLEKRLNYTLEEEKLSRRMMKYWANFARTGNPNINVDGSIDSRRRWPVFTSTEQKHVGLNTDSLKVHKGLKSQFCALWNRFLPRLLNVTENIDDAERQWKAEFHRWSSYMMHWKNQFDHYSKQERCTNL
pIC50: −log10 of the molar value.
MEASUREMENT_NAME: pIC50

CHEM_SMILES	RESULT_OPERATOR	REPORTED_MEASUREMENT
CC(C)C1=N[C@H]2CC[C@]34C[C@]35C(=O)C[C@]3(C)[C@@H]([C@H](C)N(C)C)[C@H](O)C[C@@]3(C)[C@@H]5CC[C@H]4[C@]2(C)CC1	=	6.53
CCN1C[C@]2(C)[C@H](CC=C3C[C@H]4C(=O)C[C@]5(C)[C@@H]([C@H](C)N(C)C)[C@H](O)C[C@@]5(C)[C@@H]4CC[C@H]32)N=C1C(C)C	<	5.00
COc1cccc(CN(C)[C@@H](C)[C@H]2[C@H](O)C[C@@]3(C)[C@@H]4CC[C@H]5[C@]6(C)CSC(C(C)C)=N[C@H]6CC[C@@]56C[C@@]46C(=O)C[C@]23C)c1	=	8.22
CC(C)C1=N[C@H]2CC[C@]34C[C@]35C(=O)C[C@]3(C)[C@@H]([C@H](C)N(C)CCc6ccccc6)[C@H](O)C[C@@]3(C)[C@@H]5CC[C@H]4[C@]2(C)CS1	=	7.85
CC(C)C1=N[C@H]2CC[C@]34C[C@]35C(=O)C[C@]3(C)[C@@H]([C@H](C)N(C)C)[C@H](O)C[C@@]3(C)[C@@H]5CC[C@H]4[C@]2(C)C=C1	=	7.80
COc1ccccc1CN(C)[C@@H](C)[C@H]1[C@H](O)C[C@@]2(C)[C@@H]3CC[C@H]4[C@]5(C)CSC(C(C)C)=N[C@H]5CC[C@@]45C[C@@]35C(=O)C[C@]12C	=	7.92
CC(C)C1=N[C@H]2CC[C@]34C[C@]35C(=O)C[C@]3(C)[C@@H]([C@H](C)N(C)C(=O)c6ccccc6)[C@H](O)C[C@@]3(C)[C@@H]5CC[C@H]4[C@]2(C)CS1	=	7.43
CC(C)C1=N[C@H]2CC[C@]34C[C@]35C(=O)C[C@]3(C)[C@@H]([C@H](C)N(C)C)[C@H](O)C[C@@]3(C)[C@@H]5CC[C@H]4[C@]2(C)CN1	<	5.00
COc1ccc(CN(C)[C@@H](C)[C@H]2[C@H](O)C[C@@]3(C)[C@@H]4CC[C@H]5[C@]6(C)CSC(C(C)C)=N[C@H]6CC[C@@]56C[C@@]46C(=O)C[C@]23C)cc1	=	7.74
C[C@@H]([C@H]1[C@H](O)C[C@@]2(C)[C@@H]3CC[C@H]4[C@]5(C)COC(C(F)(C(F)(F)F)C(F)(F)F)=N[C@H]5CC[C@@]45C[C@@]35C(=O)C[C@]12C)N(C)C	=	5.77
CC(C)C1=N[C@H]2CC[C@]34C[C@]35C(=O)C[C@]3(C)[C@@H]([C@H](C)N(C)CCCN6C(=O)c7ccccc7C6=O)[C@H](O)C[C@@]3(C)[C@@H]5CC[C@H]4[C@]2(C)CS1	=	7.85
CC(C)C1=N[C@H]2CC[C@]34C[C@]35C(=O)C[C@]3(C)[C@@H]([C@H](C)N(C)Cc6cccc(C(F)(F)F)c6)[C@H](O)C[C@@]3(C)[C@@H]5CC[C@H]4[C@]2(C)CS1	=	8.05
CC(C)C1=N[C@H]2CC[C@]34C[C@]35C(=O)C[C@]3(C)[C@@H]([C@H](C)N(C)CCN6C(=O)c7ccccc7C6=O)[C@H](O)C[C@@]3(C)[C@@H]5CC[C@H]4[C@]2(C)CS1	=	7.62
CC(C)C1=N[C@H]2CC[C@]34C[C@]35C(=O)C[C@]3(C)[C@@H]([C@H](C)N(C)Cc6ccccc6)[C@H](O)C[C@@]3(C)[C@@H]5CC[C@H]4[C@]2(C)CS1	=	7.89
CC(C)C1=N[C@H]2CC[C@]34C[C@]35C(=O)C[C@]3(C)[C@@H]([C@H](C)N(C)C)[C@H](O)C[C@@]3(C)[C@@H]5CC[C@H]4[C@]2(C)CS1	=	7.42
CC(C)C1=N[C@H]2CC[C@]34C[C@]35C(=O)C[C@]3(C)[C@@H]([C@H](C)N(C)CCCc6ccccc6)[C@H](O)C[C@@]3(C)[C@@H]5CC[C@H]4[C@]2(C)CS1	=	7.10
CC(C)C1=N[C@H]2CC[C@]34C[C@]35C(=O)C[C@]3(C)[C@@H]([C@H](C)N(C)C)[C@H](O)C[C@@]3(C)[C@@H]5CC[C@H]4[C@]2(C)CN1C	<	5.00
